Let's go through some recorded IC50 values for UniProt P25103 together.
Sequence (P25103 whole entry): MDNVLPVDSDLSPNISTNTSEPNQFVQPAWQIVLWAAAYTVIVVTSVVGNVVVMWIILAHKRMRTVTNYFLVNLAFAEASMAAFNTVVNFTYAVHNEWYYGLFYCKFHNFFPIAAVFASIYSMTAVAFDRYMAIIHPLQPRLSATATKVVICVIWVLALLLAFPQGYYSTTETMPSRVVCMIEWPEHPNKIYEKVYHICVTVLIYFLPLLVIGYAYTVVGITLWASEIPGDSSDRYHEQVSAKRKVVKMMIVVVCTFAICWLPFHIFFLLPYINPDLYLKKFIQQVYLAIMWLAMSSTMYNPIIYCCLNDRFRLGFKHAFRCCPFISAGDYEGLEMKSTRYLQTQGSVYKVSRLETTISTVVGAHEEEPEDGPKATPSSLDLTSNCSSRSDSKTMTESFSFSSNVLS
Field: numeric (nM). Do not append units.

Please review the entries below; each comes with its answer.
compound: CN(CCc1cc(C(F)(F)F)cc(C(F)(F)F)c1)C(=O)C(Cc1c[nH]c2ccccc12)N1CCN(C2CCCCC2)CC1 (centres undefined)
observed: 12

compound: CN(CC(c1cccc2c1OCO2)N1CCC(N2CCCCC2)CC1)C(=O)Cc1cc(C(F)(F)F)cc(C(F)(F)F)c1 (centres undefined)
observed: 1.8

compound: COc1cccc(C(CN(C)C(=O)Cc2cc(C(F)(F)F)cc(C(F)(F)F)c2)N2CCC(N3CCCCC3)CC2)c1OC (centres undefined)
observed: 10

Would you kindly look at the next entry?
Enquiry: What measured IC50 is associated with COc1ccccc1CC(=O)N(C)CC(c1cccc2c1OCO2)N1CCC(N2CCCCC2)CC1 (centres undefined) on UniProt P25103?
Return: 16
